- Test system: RPMI-8226 leukemia
- ASSAY SUMMARY: NCI-60 one-dose screen, 48 h (100 = growth as untreated, 0 = no growth, -100 = all killed)
- CONDITIONS: 10 µM unless noted
- Experimental: Growth inhibition of the RPMI-8226 human tumor cell line is measured as a screen for anti-cancer activity. Cells are grown in 96 well plates and exposed to the test compound for 48 hours. Compounds are tested at a single concentration, which is 10^-5 M for most compounds. The reported endpoint is percent growth (GI% or GIPRCNT), where numbers from 0 - 100% represent growth inhibition, and numbers from -100% - 0 represent cell death. For example, a value of 40 represents 60% growth inhibition. […]
The panel holds about 83,000 compounds, 20% with a hit somewhere; the sample as a whole holds those more often.
Provide the recorded growth for the entries that follow.
Give bare numbers, in %.

Solved cases (5 shown):
COc1ccc(NC2=C(Cl)C(=O)C(C)=C(C)C2=O)cc1 : 68.8
NS(=O)(=O)Oc1ccc2nc(Nc3ccc(F)c(F)c3)ccc2c1 : 86.7
O=C(CCCCCCN1CC(=O)N2[C@@H](c3cc(F)cc(F)c3)c3[nH]c4ccccc4c3C[C@H]2C1=O)NO : 24.2
Cc1cc(-c2ccc3nc(N)sc3c2)nc2ccc3[nH]ncc3c12 : 39.6
c1ccc(-c2c(-c3ccccc3)[n+](Cc3ccc4ccccc4c3)c(-c3ccccc3)n2Cc2ccc3ccccc3c2)cc1 : -30.5

Go through the list and state growth for each entry.
1. Cc1ccc(NC(=O)N[C@@H](Cc2cc(F)cc(F)c2)C(=O)NC2C(=O)N3CCC[C@H]3C(=O)N3CCCC[C@H]3C(=O)N[C@@H](C)C(=O)N3C[C@H](C)C[C@H]3C(=O)O[C@H]2C)c(F)c1 (some centres undefined)
2. C/C(=N/Nc1nc(N/N=C(/C)c2ccc([N+](=O)[O-])cc2)nc(N2CCOCC2)n1)c1ccc([N+](=O)[O-])cc1
3. CS(=O)c1nccc(-c2c(-c3ccc(F)c(OCc4ccc(F)cc4)c3)nc3sccn23)n1 (centres undefined)
4. Cc1ccc(Cc2cnc(NC(=O)/C(C#N)=C/c3ccc(-c4ccc(Cl)cc4)o3)s2)cc1

1. 11.6
2. 64.7
3. 20.2
4. 94.3

* * *

- Tested on: SK-MEL-28 melanoma
- ASSAY SUMMARY: NCI-60 one-dose screen, 48 h (100 = growth as untreated, 0 = no growth, -100 = all killed)
- CONDITIONS: 10 µM unless noted
About 83,000 compounds went through this panel and 20% of them were active in at least one assay; those are over-represented in the sample as a whole.
VALUE KIND: growth (%)
Answers are plain numbers, in %.

Solved cases (4 shown):
C#CCOc1ccc(/C=N/Nc2nc(-c3cc4cc(Br)cc(Br)c4oc3=O)cs2)cc1 : 106
COc1ccc2oc3c4[nH]c5ccccc5c4c4c(c3c2c1)C(=O)N(O)C4=O : 106
Nc1nc(N)c2c(n1)NC(c1ccc(Cl)cc1)CC(c1ccc(Nc3nc(NCCO)nc(Nc4ccc(Cl)cc4)n3)cc1)=N2 (stereo not given) : 103
COc1ccc(OC)c([C@H]2c3[nH]c4ccccc4c3C[C@H]3C(=O)N(CCCCCCC(=O)NO)CC(=O)N23)c1 : 75.2

Find the recorded growth belonging to Oc1ccc(CSc2nnc(-c3ccccc3)n2-c2ccccc2)c2cccnc12 and report it.
17.7

* * *

- System: KM12 colon
- ASSAY SUMMARY: NCI-60 one-dose screen, 48 h (100 = growth as untreated, 0 = no growth, -100 = all killed)
- CONDITIONS: 10 µM unless noted
Compounds without any hit were thinned out: in the full panel of roughly 83,000, 20% have a hit. Activity calls are given as the source filed them. Rule for the calls: active = growth percent below 10; inactive = the rest.
VALUE KIND: growth

Cc1ccc(/C=C/CC(=O)Nc2ccc(C(=O)Nc3ccc(F)cc3N)cc2)cn1 : 75.2% (inactive)
CCN1C(=O)N(CC)C2SC(N/N=C/c3ccccc3F)=NC21 (stereo unspecified) : 11.8% (inactive)
CN1C(=O)N(C)C2C1NN=c1s/c(=C\c3ccccn3)c(=O)n12 (stereo unspecified) : 91.6% (inactive)
COc1ccc(-c2nnc(/N=C3/C(=O)Nc4ccc(Br)cc43)o2)cc1 : 89.7% (inactive)
COc1ccc2c(ccn2C(=O)N2c3ccccc3Sc3ccccc32)c1 : 24.2% (inactive)

Go through the list and state growth for each entry.
1. Cc1ccccc1/C=C/c1nn2c(-c3ccoc3C)nnc2s1
2. CS(=O)(=O)c1nccc(-c2c(-c3ccc(F)c(OCc4ccccc4)c3)nc3sccn23)n1
3. C=C1C(=O)O[C@@H]2C[C@@H](C)[C@H](OC)CC(=O)[C@](C)(OC(C)=O)C[C@H](OC(=O)/C(C)=C\C)[C@@H]12

1. 105% (inactive)
2. 96.5% (inactive)
3. 93.7% (inactive)

Go through the list and state growth for each entry.
1. COc1ccc(-c2nnc(SCc3ccc(O)c4ncccc34)o2)cc1
2. CC(C)c1nn(-c2ccccc2)c(N2CCCCC2)c1/C=N/NC(N)=S
3. CN1CCN(c2nc(-c3csc(-c4ccncc4)n3)cc3ccccc23)CC1

1: 15.7% (inactive); 2: 103% (inactive); 3: 62.6% (inactive)

Go through the list and state growth for each entry.
1. C=C1C(=O)O[C@@H]2C[C@@H](C)CCC(=O)[C@](C)(OC(C)=O)C[C@H](OC(=O)/C(C)=C\C)[C@@H]12
2. Cn1c(SC(C(=O)Nc2ccc(F)cc2)c2ccccc2)nc2ccccc2c1=O (stereo unspecified)
3. CC1CCN(S(=O)(=O)c2ncsc2-c2ccccc2)CC1
4. O=C(COc1ccc(C2SCC(=O)N2c2ccccc2)cc1)c1ccccc1 (stereo unspecified)
5. Oc1ccc(CSc2nnc(-c3ccc(Br)cc3)o2)c2cccnc12

["91.6% (inactive)", "112% (inactive)", "94.8% (inactive)", "99.4% (inactive)", "19.1% (inactive)"]

Go through the list and state growth for each entry.
1. COc1ccc(N2CCN(C(=O)CSc3ccc(-c4nc5cc(C)c(C)cc5[nH]4)cn3)CC2)cc1
2. Oc1ccc(CSc2nnc(-c3ccccc3)o2)c2cccnc12

53.2% (inactive)
17.3% (inactive)

Go through the list and state growth for each entry.
1. O=C(NNc1nc2cc(F)c(F)cc2n2cccc12)c1ncccn1
2. CN1CCN(Cc2ccc(NC(=O)c3cncc(C#Cc4[nH]nc5ncncc45)c3)cc2C(F)(F)F)CC1
3. NS(=O)(=O)c1ccc(Nc2nc(N/N=C/c3ccc(F)cc3)nc(Nc3ccccc3)n2)cc1

25.6% (inactive)
10.5% (inactive)
30.9% (inactive)

* * *

- Test system: UACC-257 melanoma
- ASSAY SUMMARY: NCI-60 one-dose screen, 48 h (100 = growth as untreated, 0 = no growth, -100 = all killed)
- CONDITIONS: 10 µM
About 83,000 compounds went through this panel and 20% of them were active in at least one assay; those are over-represented in the sample as a whole.
Give condition met when the value for growth is at least 90%. Give condition not met when it is less.

O=S(=O)(Nc1cc(Cl)cc(Cl)c1)c1ccc(-c2cnc(C3CC3)o2)cc1 : condition not met
COc1ccc2c(c1)c(-c1nnc(N)nc1-c1cn(C)c3ccccc13)cn2C : condition met
CS(=O)(=O)c1nccc(-c2c(-c3ccc(F)c(OCc4ccc(F)cc4)c3)nc3sccn23)n1 : condition not met
CCOC(=O)Nc1ccc(-c2nc(-c3cccc(O)c3)c(-c3ccnc(Br)c3)[nH]2)cc1 : condition not met
CN1CCN(c2ccc3c(C(N)=O)c(NC(=O)c4ccc(C(C)(C)C)cc4)sc3c2)CC1 : condition met
COc1cc(-c2nc(SCc3ccc(C)cc3)[nH]c(=O)c2C#N)ccc1OCc1ccccc1 : condition met
O=C(Nc1ccccc1)Nc1nc2ccc([N+](=O)[O-])cc2s1 : condition not met
CS(=O)(=O)c1ccc2c(c1)c1c(n2S(=O)(=O)c2ccc(Cl)cc2)CCCC1 : condition not met
O=c1[nH]c2cc(Cl)ccc2n1C1CCN(c2ccc3nnc(Cl)n3n2)CC1 : condition met
C/C(=C(/C)C1CC1CCN(C(=O)c1ccccn1)S(=O)(=O)c1ccc(C)cc1)C1CCCCC1 (centres undefined) : condition met

Please indicate if the recorded growth for C=CCn1c(SCC(=O)Nc2cccc(C(=O)/C=C/c3ccc(C)cc3)c2)nc2ccccc2c1=O meets or exceeds 90%.
condition met

Please answer likewise for O=C(NNc1nc2cc(F)c(F)cc2n2cccc12)c1ncccn1
condition not met

Please answer likewise for O=C(Nc1cccc(-c2nc(-c3ccc(NC(=O)c4cccs4)cc3Cl)no2)c1)Nc1ccc(NC(=O)C2CC2)c(C(F)(F)F)c1
condition not met

Please answer likewise for CCOC(=O)c1ccc(N/C=C/C(=O)c2ccccc2)cc1
condition met

Please answer likewise for O=C1c2c(c3c4cc(Br)ccc4[nH]c3c3ccc4ccccc4c23)C(=O)N1CCN1CCNCC1
condition met

Please answer likewise for C#CCOc1ccccc1C(Nc1ccccc1)c1nnnn1C1CCCCC1 (centres undefined)
condition met

Please answer likewise for COc1cccc(/C=C/C(=O)c2ccc(NC(=O)COc3cccc4cccnc34)cc2)c1
condition met

Please answer likewise for CC(=O)Nc1cccc(-n2cnc3cc(-c4ccc(O)cc4)ccc32)c1
condition not met
